The measured values listed here are drawn from PubChem BioAssay (Tox21).

Target: Peroxisome proliferator-activated receptor delta (Homo sapiens) (UniProt Q03181)
Sequence (Q03181 whole entry, looked up): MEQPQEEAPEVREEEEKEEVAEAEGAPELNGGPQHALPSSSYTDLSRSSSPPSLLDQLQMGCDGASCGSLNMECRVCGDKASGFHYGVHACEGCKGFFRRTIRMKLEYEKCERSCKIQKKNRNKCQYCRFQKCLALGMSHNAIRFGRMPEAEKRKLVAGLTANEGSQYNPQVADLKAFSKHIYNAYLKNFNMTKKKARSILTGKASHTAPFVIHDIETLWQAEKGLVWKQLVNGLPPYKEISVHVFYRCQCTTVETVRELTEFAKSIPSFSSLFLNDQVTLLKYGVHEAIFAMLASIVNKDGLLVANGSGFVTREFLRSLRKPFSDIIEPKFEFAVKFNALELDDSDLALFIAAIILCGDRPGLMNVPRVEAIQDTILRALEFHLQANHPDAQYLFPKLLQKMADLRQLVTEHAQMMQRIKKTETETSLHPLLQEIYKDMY
Assay: qHTS assay to identify small molecule antagonists of the peroxisome proliferator-activated receptor delta (PPARd) signaling pathway (AID 743215);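 also: cells stimulated with agonist L165041 at 300 nM final during compound exposure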
Settings: HEK293H PPARd-UAS-bla, beta-lactamase FRET ratio, antagonist, 17 h; series mostly up to 62 µM
Inconclusive results are not listed. Activity calls are given as the source filed them. Calls follow the shape of the dose curve; as a rule, active = well fitted inhibition curve with a large enough effect in the signal ratio in the repeat runs (not every such curve was filed as active); inconclusive = weak or mixed curves, or effect the other way; inactive = no such curve, though single readings can be large or run the other way; the % refers to the signal ratio.
Measured Endpoint: outcome

In [3]: df
Out[3]:
                               smiles_entry       val
0  COc1cccc(-c2ccc(/C=C\CN3CCCCCC3)cc2Cl)c1  inactive
1         CN(C/C=C/c1ccccc1)Cc1cccc2ccccc12  inactive
2          c1ccc2cc3c4ccccc4c4ccccc4c3cc2c1  inactive
